Test system: S. haemolyticus 114126
Test: BCT test (bacterial contact time), 120 s, log reduction / effect fraction; CI by Compusyn
Format: cell-based
Conditions: Staphylococcus haemolyticus, 114126, 2 min, dose 0.125% w/v; contact 120 s; 25% EtOH
Protocol: S. haemolyticus: Suspensions of the S. haemolyticus 114126 strain, isolated from skin, were prepared as follows: Stock cultures (stored at −80° C.) were thawed and sub-cultured onto TSA-TW80 agar plate media, and incubated at 37° C. for 24 h to obtain single colonies. […] Each plate was sealed and incubated at 37° C. under agitation (180 rpm). After incubation, the turbidity of the wells (OD600 nm) was determined using a Tecan microplate reader. […]
Measured Parameter: log reduction at 0.125 % strength
Reply with just the number.

Before answering, review these 5 worked examples.
INSERT INTO results (compound, measured_parameter, reported_measurement) VALUES
  ('C=C(C)[C@@H]1CC=C(CO)CC1', 'log reduction at 0.125 % strength', 0.4),
  ('CC(CCO)CCc1ccccc1 (stereo not drawn)', 'log reduction at 0.125 % strength', 3.9),
  ('CC(C)=CCC/C(C)=C/CO', 'log reduction at 0.125 % strength', 5.3),
  ('CCC(C)(O)CCCC(C)C (stereo not drawn)', 'log reduction at 0.125 % strength', 7.3),
  ('CCCCCCC1CCC(=O)O1 (stereo not drawn)', 'log reduction at 0.125 % strength', 0.7);

The record that follows has no log reduction at 0.125 % strength shown yet.
INPUT: Write down log reduction at 0.125 % strength measured for item CC(C)=CCC/C(C)=C\CO [Nerol, (Z)-3,7-dimethyl-2,6-octadien-1-ol]
OUTPUT: 4
